Hey, just so you know, these numbers are from patent EP4813980A1.

Test system: vCap cells
Experiment: Cell growth inhibition, CellTiter-Glo, 72 h
Format: cell-based
Details: Homo sapiens, 72 h culture, mean of N=2
Procedure: 22RV1, vCap, MM1S and OPM-2 cells were cultured in RPMI-1640 medium (10% fetal bovine serum and 100 units of penicillin/streptomycin dual-antibody per mL were added to RPMI-1640) in a cell incubator at 37°C with 5% CO2, respectively. Cells in logarithmic growth phase were seeded into 96-well cell culture plates at 5×10^3 cells/100 µL/well and cultured overnight. […] Fluorescence signal values were read with a microplate reader. Data were analyzed and graphs were generated using Prism 7.0. […]
Field: label. Allowed values: met (IC50 < 30 nM) or not met (IC50 >= 30 nM).

Exercise: Please check: IC50 for CC(=O)N1Cc2cc(C3CCN(C(=O)CCCCCCNc4cccc5c4n(C)c(=O)n5C4CCC(=O)NC4=O)CC3)cc(N3CCCc4cc(-c5cnn(C)c5)c(C(F)F)cc43)c2C1 (stereo not drawn) , strictly under 30 nM or not?
Solution: met

Exercise: Please check: IC50 for CNC(=O)N1CCc2cc(C3CCN(CCN4CCC(CCc5cccc6c5C(=O)N(C5CCC(=O)NC5=O)C6=O)CC4)CC3)cc(N3CCCc4cc(-c5cnn(C)c5)c(C(F)F)cc43)c2C1 (stereo not drawn) , strictly under 30 nM or not?
Solution: met

Exercise: Please check: IC50 for CC(=O)N1Cc2cc(C3CCN(CC4CCN(CCNc5ccc6c(c5)CN(C5CCC(=O)NC5=O)C6=O)CC4)CC3)cc(N3CCCc4cc(-c5cnn(C)c5)c(C(F)F)cc43)c2C1 (stereo not drawn) , strictly under 30 nM or not?
Solution: met

Exercise: Please check: IC50 for CC(=O)N1Cc2cc(C3CCN(CC4CCN(c5ccc6c(c5)C(=O)N(C5CCC(=O)NC5=O)C6=O)CC4)CC3)cc(N3CCCc4cc(-c5cnn(C)c5)c(C(F)F)cc43)c2C1 (stereo not drawn) , strictly under 30 nM or not?
Solution: met

Exercise: Please check: IC50 for CC(=O)n1cc2cc(C3CCN(C(=O)CCCCCCOc4ccc5c(c4)n(C)c(=O)n5C4CCC(=O)NC4=O)CC3)cc(N3CCCc4cc(-c5cnn(C)c5)c(C(F)F)cc43)c2c1 (stereo not drawn) , strictly under 30 nM or not?
Solution: met

Exercise: Please check: IC50 for `C=CS(=O)(=O)N1CCC(n2nc(N3CCCc4cc(-c5cnn(C)c5)c(C(F)F)cc43)c3c2CCN(C(=O)NC)C3)CC1` , strictly under 30 nM or not?
Solution: met

Exercise: Please check: IC50 for CC(=O)N1Cc2cc(C3CCN(C(=O)CCCCC#Cc4ccc5c(c4)n(C)c(=O)n5C4CCC(=O)NC4=O)CC3)cc(N3CCCc4cc(-c5cnn(C)c5)c(C(F)F)cc43)c2C1 (stereo not drawn) , strictly under 30 nM or not?
Solution: met

Exercise: Please check: IC50 for `CO[C@H]1CC[C@H](n2c([C@@H]3CCCC(=O)N3c3ccc(F)c(F)c3)nc3cc(-c4c(C)noc4C)ccc32)CC1` , strictly under 30 nM or not?
Solution: not met

Exercise: Please check: IC50 for CC(=O)N1Cc2cc([C@H]3CC[C@H](CN4Cc5cc6c(cc5C4)C(=O)N(C4CCC(=O)NC4=O)C6=O)CC3)cc(N3CCCc4cc(-c5cnn(C)c5)c(C(F)F)cc43)c2C1 (relative stereo) , strictly under 30 nM or not?
Solution: not met

Exercise: Please check: IC50 for `CNC(=O)N1CCc2c(c(N3CCCc4cc(-c5cnn(C)c5)c(C(F)F)cc43)nn2C2CCOCC2)C1` , strictly under 30 nM or not?
Solution: not met

Exercise: Please check: IC50 for CC(=O)N1Cc2cc(C3CCN(CCN4CCOC(CNc5cccc6c5C(=O)N(C5CCC(=O)NC5=O)C6=O)C4)CC3)cc(N3CCCc4cc(-c5cnn(C)c5)c(C(F)F)cc43)c2C1 (stereo not drawn) , strictly under 30 nM or not?
Solution: met

Exercise: Please check: IC50 for CNC(=O)N1CCc2cc(C3CCN(C(=O)CCCCCCNc4ccc5c(c4)n(C)c(=O)n5C4CCC(=O)NC4=O)CC3)cc(N3CCCc4cc(-c5cnn(C)c5)c(C(F)F)cc43)c2C1 (stereo not drawn) , strictly under 30 nM or not?
Solution: met

Exercise: Please check: IC50 for CNC(=O)N1CCc2cc(C3CCN(CC4CCN(CCCc5cccc6c5C(=O)N(C5CCC(=O)NC5=O)C6=O)CC4)CC3)cc(N3CCCc4cc(-c5cnn(C)c5)c(C(F)F)cc43)c2C1 (stereo not drawn) , strictly under 30 nM or not?
Solution: met

Exercise: Please check: IC50 for CC(=O)N1Cc2cc([C@H]3CC[C@@H](CN4Cc5cc6c(cc5C4)C(=O)N(C4CCC(=O)NC4=O)C6=O)CC3)cc(N3CCCc4cc(-c5cnn(C)c5)c(C(F)F)cc43)c2C1 (relative stereo) , strictly under 30 nM or not?
Solution: met

Exercise: Please check: IC50 for `C=CS(=O)(=O)N[C@H]1CC[C@H](c2cc3c(c(N4CCCc5cc(-c6cnn(C)c6)c(C(F)F)cc54)c2)CN(C(=O)NC)CC3)CC1` , strictly under 30 nM or not?
Solution: not met

Exercise: Please check: IC50 for `CC(=O)N1Cc2cc([C@H]3CC[C@H](NC(=O)CCl)CC3)cc(N3CCCc4cc(-c5cnn(C)c5)c(C(F)F)cc43)c2C1` , strictly under 30 nM or not?
Solution: met

Exercise: Please check: IC50 for CC(=O)N1Cc2cc(C3CCC(N4C(=O)C=CC4=O)CC3)cc(N3CCCc4cc(-c5cnn(C)c5)c(C(F)F)cc43)c2C1 (stereo not drawn) , strictly under 30 nM or not?
Solution: not met

Exercise: Please check: IC50 for `C=CS(=O)(=O)N1CCC(c2cc3c(c(N4CCCc5cc(-c6cnn(C)c6)c(C(F)F)cc54)c2)CN(C(=O)NC)C3)CC1` , strictly under 30 nM or not?
Solution: not met

Exercise: Please check: IC50 for COC(=O)N1Cc2cc(C3CCN(C(=O)CCOCCOCCOCCOCCNc4ccc5c(c4)C(=O)N(C4CCC(=O)NC4=O)C5=O)CC3)cc(N3CCCc4cc(-c5cnn(C)c5)c(C(F)F)cc43)c2C1 (stereo not drawn) , strictly under 30 nM or not?
Solution: not met

Exercise: Please check: IC50 for CC(=O)N1CCc2cc(C3CCN(C(=O)CCCCCCCNc4ccc5c(c4)C(=O)N(C4CCC(=O)NC4=O)C5=O)CC3)cc(N3CCCc4cc(-c5cnn(C)c5)c(C(F)F)cc43)c2C1 (stereo not drawn) , strictly under 30 nM or not?
Solution: not met

Exercise: Please check: IC50 for `C=CS(=O)(=O)N1CCC(c2cc3c(c(N4CCCc5cc(-c6cnn(C)c6)c(C(F)F)cc54)c2)CN(C(C)=O)C3)CC1` , strictly under 30 nM or not?
Solution: not met
